Just for reference, patent US20190106487A1 is where these values come from.

Target: T1, mIL1RAcP-Fc (murine, UniProt Q61730 21-359)
T1 construct: also called P013_04; P013-04
T1 sequence (looked up): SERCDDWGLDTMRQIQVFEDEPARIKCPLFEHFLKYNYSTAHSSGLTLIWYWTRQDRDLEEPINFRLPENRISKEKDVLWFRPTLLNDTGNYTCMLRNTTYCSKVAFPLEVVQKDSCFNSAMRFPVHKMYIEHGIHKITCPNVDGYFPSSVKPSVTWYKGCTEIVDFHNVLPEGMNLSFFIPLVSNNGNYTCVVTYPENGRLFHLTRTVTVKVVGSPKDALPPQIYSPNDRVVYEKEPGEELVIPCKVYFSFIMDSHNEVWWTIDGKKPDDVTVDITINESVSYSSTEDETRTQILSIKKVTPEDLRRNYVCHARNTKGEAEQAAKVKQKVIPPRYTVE
Test: ELISA, recombinant purified mAb
Metric Name: EC50 (µg/mL)
Please reply with the bare figure in µg/mL and do not write the unit itself.

GET /value?item= P013.S.02.B.G02 (antibody, V domains shown, rabbit monoclonal antibody; also called P013.A.00014.C07) VH: QSLEESGGDLVKPGASLTLTCTASGFSLSSGGMTWVRQAPGKGLEWIGYINTGSGRTYYASWAKGRFIISKTSSTTVSLQMTSLTAADTATYFCAGGLPSDLWGPGTLVTVSS VL: DIVMTQTPSSVEAAVGGTVTIKCQASQSINSRLAWYQQKPGQPPKLLIYDASTLASGVSSRFSGSGTEFTLTISDLESADGATYYCLSHYLTSSSSYGNAFGGGTEVVVK &field=EC50 returns 0.082
